- ASSAY REMARKS: Accelerated stability screening monitored by SEC
- Assay type: physicochemical
- MEASUREMENT CONTEXT: SEC, 7 days storage at 50° C.
Collected Fragment (%) values appear next to each entry.
VALUE KIND: Fragment (%)

MOLECULE	RESULT
Hu2B5.4: humanized 2B5-8.0; VH SEQ ID NO 66, VL SEQ ID NO 67 (antibody, V domains shown) VH: EVQLVQSGAEVKKPGASVKVSCKASGYTFTKYWLGWVRQAPGQGLEWIGDIYPGYDYTHYNEKFKDRATLTVDTSTSTAYMELSSLRSDDTAVYYCARSDGSSTYWGQGTLVTVSS VL: DVLMTQTPLSLPVTPGEPASISCTSSQNIVHSNGNTYLEWYLQKPGQSPQLLIYKVSNRFSGVPDRFSGSGSGTDFTLKISRVEAEDVGVYYCFQVSHVPYTFGGGTKVEIKR	6.5423
Hu2B5.2: humanized 2B5-8.0; VH SEQ ID NO 62, VL SEQ ID NO 63 (antibody, V domains shown) VH: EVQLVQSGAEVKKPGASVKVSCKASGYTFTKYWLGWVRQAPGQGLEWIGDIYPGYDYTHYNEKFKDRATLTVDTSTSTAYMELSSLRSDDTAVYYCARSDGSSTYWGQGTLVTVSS VL: DVVMTQTPLSLPVTPGEPASISCTSSQNIVHSNGNTYLEWYLQKPGQSPQLLIYKVSNRFSGVPDRFSGSGSGTDFTLKISRVEAEDVGVYYCFQVSHVPYTFGGGTKVEIKR	4.6755
Hu2B5.8: humanized 2B5-8.0; VH SEQ ID NO 74, VL SEQ ID NO 75 (antibody, V domains shown) VH: EVQLVQSGAEVKKPGASVKVSCKASGYTFTKYWLGWVRQAPGQGLEWMGDIYPGYDYTHYNEKFKDRVTLTTDTSTSTAYMELSSLRSDDTAVYYCARSDGSSTYWGQGTLVTVSS VL: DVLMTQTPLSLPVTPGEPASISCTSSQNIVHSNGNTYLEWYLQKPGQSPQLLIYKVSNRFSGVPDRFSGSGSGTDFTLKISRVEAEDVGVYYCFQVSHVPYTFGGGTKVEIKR	4.184
